Test system: PIKFYVE;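 further: KINOMEscan kinase panel screen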
Details: concentration: 1 μM,replicates: in singlicate; n = 1
Readout Type: %Inh (%)

INSERT INTO assay_data (compound, readout_type, number) VALUES
  ('O=c1[nH]cc(-c2ccc(O)cc2)c2sc(-c3ccncc3)cc12', '%Inh', 0),
  ('CN(c1cccc(CNc2nc(Nc3ccc4c(c3)CC(=O)N4)ncc2C(F)(F)F)c1)S(C)(=O)=O', '%Inh', 31),
  ('Nc1nccc(-c2ccc3c(N)n[nH]c3c2)n1', '%Inh', 0),
  ('COc1cc2c(Nc3ccc(NC(=O)c4ccccc4)cc3)ncnc2cc1OCCCN1CCOCC1', '%Inh', 0),
  ('CN(c1ccccc1CNc1nc(Nc2ccc3c(c2)CC(=O)N3)ncc1C(F)(F)F)S(C)(=O)=O', '%Inh', 38),
  ('O=C(Nc1cccc(C(F)(F)F)c1)c1cccc(Oc2ccc3nccn3n2)c1', '%Inh', 0),
  ('CN(c1ccc2c(c1)nc(NCc1ccc(F)cc1)n2C)c1ccnc(Nc2ccc(CS(C)(=O)=O)cc2)n1.Cl', '%Inh', 0),
  ('COC(=O)c1cccc(NC(=O)NC2CCN(c3ccnc(NCc4ccc(F)cc4)n3)CC2)c1', '%Inh', 57),
  ('COc1cccc(CNC(=O)NC2CCN(c3ccnc(Nc4cc(OC)c(OC)c(OC)c4)n3)C2)c1 (stereo not drawn)', '%Inh', 0),
  ('Cc1ccc2c(-c3ccnc(Nc4ccc(C(F)(F)F)cc4)n3)cnn2n1', '%Inh', 23),
  ('Cn1ccc2ncnc(Oc3ccc(NC(=O)Nc4ccnc(C(F)(F)F)c4)c(Cl)c3)c21', '%Inh', 7),
  ('COc1cc2ncn(-c3cc(OCC4CCCCC4)c(C(N)=O)s3)c2cc1OC', '%Inh', 0),
  ('Cc1nnc(-c2ccc3occ(-c4ccc(S(C)=O)cc4)c3n2)o1 (stereo not drawn)', '%Inh', 0),
  ('Cc1n[nH]c2cc(Nc3ccnc(Nc4cccc(CN5CCOCC5)c4)n3)ccc12', '%Inh', 23),
  ('FC(F)(F)c1cc(Br)cc(Nc2nccc(-c3cnn4ncccc34)n2)c1', '%Inh', 10),
  ('Cn1ccc2ncnc(Oc3ccc(NC(=O)Nc4cccc(C(F)(F)F)c4)c(F)c3)c21', '%Inh', 13),
  ('CC(=O)c1c(-c2ccncc2)[nH]c(-c2ccncc2)c1C', '%Inh', 26),
  ('COC(=O)Nc1nc2cc(Oc3ccc(NC(=O)Nc4cc(C(F)(F)F)ccc4Cl)cc3)ccc2[nH]1.Cl', '%Inh', 20);
